# maps each entry to its IC50
# target of assay: PRMT8 (Homo sapiens)
# Sequence (Q9NR22 whole entry, species assumed): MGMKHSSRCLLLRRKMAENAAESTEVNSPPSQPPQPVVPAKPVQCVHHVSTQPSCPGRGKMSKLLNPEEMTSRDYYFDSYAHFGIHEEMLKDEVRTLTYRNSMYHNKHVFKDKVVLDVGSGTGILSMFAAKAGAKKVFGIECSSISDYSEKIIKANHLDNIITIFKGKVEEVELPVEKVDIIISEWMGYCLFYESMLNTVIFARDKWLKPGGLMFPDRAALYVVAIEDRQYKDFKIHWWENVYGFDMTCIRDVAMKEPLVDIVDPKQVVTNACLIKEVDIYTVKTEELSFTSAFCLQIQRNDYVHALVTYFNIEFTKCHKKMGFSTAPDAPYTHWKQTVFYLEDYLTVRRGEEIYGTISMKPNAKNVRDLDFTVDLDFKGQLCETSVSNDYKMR
# measurement protocol: selectivity of YD1113/YD1290 on PRMT panel, PRMT8
# Format: biochemical

{"compound": "N=C(NCCCSC[C@H]1O[C@@H](n2cnc3c(NCc4cn(Cc5ccccc5)nn4)ncnc32)C(O)[C@H]1O)Nc1cccc(Br)c1 (stereo in doubt) [YD1-254]", "IC50": "40 nM"}
{"compound": "N=C(NCCCSC[C@H]1O[C@@H](n2cnc3c(NCC#Cc4ccc(O)cc4)ncnc32)C(O)[C@H]1O)Nc1cccc(Br)c1 (stereo in doubt) [YD1-250]", "IC50": "38 nM"}
{"compound": "N=C(NCCCSC[C@H]1O[C@@H](n2cnc3c(NCC#Cc4ccccc4)ncnc32)[C@H](O)[C@@H]1O)Nc1cccc(Br)c1 [YD1-248]", "IC50": "24 nM"}
